Just for reference, BindingDB's records for doi:10.3109/14756366.2011.595713 is where these values come from.

Listed here: items and their measured pKi.
Biological target: 5-hydroxytryptamine receptor 6 (Homo sapiens, UniProt P50406)
Sequence (P50406 whole entry): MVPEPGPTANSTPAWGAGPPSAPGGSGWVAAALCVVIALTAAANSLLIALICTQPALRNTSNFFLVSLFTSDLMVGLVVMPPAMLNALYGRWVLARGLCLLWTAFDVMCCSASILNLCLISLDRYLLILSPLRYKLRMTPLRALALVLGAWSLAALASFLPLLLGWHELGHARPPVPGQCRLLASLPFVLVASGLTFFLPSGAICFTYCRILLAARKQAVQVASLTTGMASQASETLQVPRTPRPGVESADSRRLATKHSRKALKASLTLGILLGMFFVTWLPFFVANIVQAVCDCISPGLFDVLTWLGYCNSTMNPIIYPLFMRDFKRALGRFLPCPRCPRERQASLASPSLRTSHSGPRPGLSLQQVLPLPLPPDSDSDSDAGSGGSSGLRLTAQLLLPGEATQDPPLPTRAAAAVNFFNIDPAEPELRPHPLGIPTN
pKi: −log10 of the molar value.
measure: pKi

| molecule | recorded.result |
| --- | --- |
| CCOc1ccc2c(c1)C(CC(C)N(C)C)=C1c3ccccc3S(=O)(=O)C12 (stereo unspecified) | 7.95 |
| COc1ccc2c(c1)C(CC(C)N(C)C)=C1c3ccccc3S(=O)(=O)C12 (stereo unspecified) | 7.94 |
| CN(C)CCC1=C2c3ccccc3CC2c2c1ccc1ccccc21 (stereo unspecified) | 7.03 |
| CC(CC1=C2c3ccccc3S(=O)(=O)C2c2ccc(Br)cc21)N(C)C (stereo unspecified) | 7.27 |
| COc1ccc2c(c1)C(CCN(C)C)=C1c3ccccc3S(=O)(=O)C12 (stereo unspecified) | 7.02 |
| CN(C)CCC1=C2c3ccccc3S(=O)(=O)C2c2ccccc21 (stereo unspecified) | 6.61 |
